For each of the compounds below, state its inhibition.
Molecular target: PAS domain-containing serine/threonine-protein kinase (Homo sapiens) (UniProt Q96RG2);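 also: reported value is the mean percent inhibition of PASK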
Sequence (Q96RG2 whole entry, the tested form may be a part): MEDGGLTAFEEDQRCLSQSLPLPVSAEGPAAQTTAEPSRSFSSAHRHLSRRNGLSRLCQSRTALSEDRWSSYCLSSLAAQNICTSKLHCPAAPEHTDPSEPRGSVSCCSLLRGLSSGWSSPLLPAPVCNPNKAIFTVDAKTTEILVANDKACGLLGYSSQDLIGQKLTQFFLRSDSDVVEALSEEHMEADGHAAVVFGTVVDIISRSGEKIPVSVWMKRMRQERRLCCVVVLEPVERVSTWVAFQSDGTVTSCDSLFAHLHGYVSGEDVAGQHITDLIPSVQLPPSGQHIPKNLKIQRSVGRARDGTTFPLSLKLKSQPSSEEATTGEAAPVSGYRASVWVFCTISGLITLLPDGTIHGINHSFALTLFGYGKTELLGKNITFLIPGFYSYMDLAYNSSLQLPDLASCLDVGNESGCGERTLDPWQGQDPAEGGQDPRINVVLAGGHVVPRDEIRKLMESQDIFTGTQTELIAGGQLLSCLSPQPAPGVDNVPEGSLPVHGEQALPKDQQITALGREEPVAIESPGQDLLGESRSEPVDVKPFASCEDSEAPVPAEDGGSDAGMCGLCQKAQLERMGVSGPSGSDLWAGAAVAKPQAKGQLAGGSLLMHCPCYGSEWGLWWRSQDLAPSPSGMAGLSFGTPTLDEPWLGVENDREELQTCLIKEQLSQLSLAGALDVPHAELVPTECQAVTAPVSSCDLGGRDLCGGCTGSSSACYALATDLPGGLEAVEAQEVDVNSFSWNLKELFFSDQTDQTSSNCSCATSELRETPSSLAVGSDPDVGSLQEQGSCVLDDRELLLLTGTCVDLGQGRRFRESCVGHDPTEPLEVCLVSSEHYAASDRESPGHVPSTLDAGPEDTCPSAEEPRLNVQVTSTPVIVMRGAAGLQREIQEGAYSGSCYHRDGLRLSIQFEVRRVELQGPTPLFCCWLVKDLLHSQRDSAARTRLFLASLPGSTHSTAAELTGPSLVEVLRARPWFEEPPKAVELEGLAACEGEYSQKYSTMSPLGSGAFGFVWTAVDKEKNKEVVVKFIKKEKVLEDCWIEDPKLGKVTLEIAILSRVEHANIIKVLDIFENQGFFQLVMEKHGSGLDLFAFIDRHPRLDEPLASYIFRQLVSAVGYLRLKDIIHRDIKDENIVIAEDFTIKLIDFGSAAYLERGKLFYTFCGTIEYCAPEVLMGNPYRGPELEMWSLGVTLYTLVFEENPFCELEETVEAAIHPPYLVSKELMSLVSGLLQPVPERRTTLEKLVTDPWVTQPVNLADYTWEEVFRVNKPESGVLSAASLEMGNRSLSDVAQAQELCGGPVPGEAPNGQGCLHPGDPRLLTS
Settings: at 1 µM
Number only, in %; omit the unit.

GET /value?item= c1cc(-c2cnn3nc(N4CCOCC4)ccc23)nc(NC2CC2)n1 &field=inhibition returns -0.94

GET /value?item= NC(=O)c1sc(-n2cnc3ccc(C(F)(F)F)cc32)cc1OCc1ccccc1Br &field=inhibition returns -1.68

GET /value?item= Cc1cccc(Nc2ncc(-c3ccccc3)o2)c1 &field=inhibition returns 1.15

GET /value?item= CNC(=O)c1cncc(/C=C/c2ccccc2Cl)c1 &field=inhibition returns 4.02

GET /value?item= Nc1ncc(-c2cccc(S(N)(=O)=O)c2)c2scc(-c3ccc(F)c(Cl)c3)c12 &field=inhibition returns 1.05

GET /value?item= COc1ccc2[nH]c3c4[nH]c5ccc(OC)cc5c4c4c(c3c2c1)C(=O)NC4=O &field=inhibition returns -1.47

GET /value?item= Fc1ccc(-c2nn3ncccc3c2-c2ccnc(Nc3ccc4c(c3)OCCO4)n2)cc1 &field=inhibition returns -3.15

GET /value?item= COC(=O)Nc1nc2ccc(Oc3ccc(NC(=O)Nc4cccc(Cl)c4)cc3)cc2[nH]1 &field=inhibition returns 0.95

GET /value?item= O=S(=O)(CCNCc1ccc(-c2ccc3ncnc(Nc4ccc(OCc5cccc(F)c5)c(Cl)c4)c3c2)o1)c1ccccc1 &field=inhibition returns 0.32

GET /value?item= CCn1c(-c2nonc2N)nc2ccccc21 &field=inhibition returns 0.51

* * *

Biological target: Proto-oncogene tyrosine-protein kinase ROS (Homo sapiens) (UniProt P08922);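 also: value given is the mean percent inhibition of ROS kinase activity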
Conditions: at 1 µM
For each of the compounds below, state its inhibition.
Number only, in %; omit the unit.

GET /value?item= CN1CCC(n2cnc(-c3ccc(F)cc3)c2-c2ccnc(Nc3ccccc3)n2)CC1 &field=inhibition returns 4

GET /value?item= Nc1ncc(-c2cccc(S(N)(=O)=O)c2)c2scc(-c3ccc(F)c(Cl)c3)c12 &field=inhibition returns 6.78

GET /value?item= Nc1nc(-c2cccc(Cl)c2)c(-c2ccc3ncccc3n2)s1 &field=inhibition returns 11.4

GET /value?item= CNC(=O)c1cccc(C#Cc2cncnc2Nc2ccc(OCc3cccc(F)c3)c(Cl)c2)c1 &field=inhibition returns 1.03

GET /value?item= COc1ccc(-c2cc3c(N)ncnc3o2)cc1 &field=inhibition returns 4.11

GET /value?item= COC(=O)Nc1nc2ccc(S(=O)(=O)c3ccc(NC(=O)Nc4cc(C(F)(F)F)ccc4F)cc3)cc2[nH]1 &field=inhibition returns 3.41

GET /value?item= CNC(=O)c1cc(-c2ccc(F)cc2)cc(-c2ccc(S(=O)(=O)N3CCCC3)cc2)c1N &field=inhibition returns 6.55

GET /value?item= COC(=O)Nc1nc2ccc(Oc3ccc(NC(=O)Nc4cccc(Cl)c4)cc3)cc2[nH]1 &field=inhibition returns 2.59

GET /value?item= N#Cc1c(NC(=O)CN2CCOCC2)sc2c1CCCC2 &field=inhibition returns 13

GET /value?item= CN(C)CCOc1ccc(-c2nc(-c3ccncc3)c(-c3ccc4c(c3)CC/C4=N\O)[nH]2)cc1 &field=inhibition returns 5.38

* * *

For each of the compounds below, state its inhibition.
Tested on: Epidermal growth factor receptor (Homo sapiens), P00533 [L861Q]
Sequence (P00533 whole entry L861Q): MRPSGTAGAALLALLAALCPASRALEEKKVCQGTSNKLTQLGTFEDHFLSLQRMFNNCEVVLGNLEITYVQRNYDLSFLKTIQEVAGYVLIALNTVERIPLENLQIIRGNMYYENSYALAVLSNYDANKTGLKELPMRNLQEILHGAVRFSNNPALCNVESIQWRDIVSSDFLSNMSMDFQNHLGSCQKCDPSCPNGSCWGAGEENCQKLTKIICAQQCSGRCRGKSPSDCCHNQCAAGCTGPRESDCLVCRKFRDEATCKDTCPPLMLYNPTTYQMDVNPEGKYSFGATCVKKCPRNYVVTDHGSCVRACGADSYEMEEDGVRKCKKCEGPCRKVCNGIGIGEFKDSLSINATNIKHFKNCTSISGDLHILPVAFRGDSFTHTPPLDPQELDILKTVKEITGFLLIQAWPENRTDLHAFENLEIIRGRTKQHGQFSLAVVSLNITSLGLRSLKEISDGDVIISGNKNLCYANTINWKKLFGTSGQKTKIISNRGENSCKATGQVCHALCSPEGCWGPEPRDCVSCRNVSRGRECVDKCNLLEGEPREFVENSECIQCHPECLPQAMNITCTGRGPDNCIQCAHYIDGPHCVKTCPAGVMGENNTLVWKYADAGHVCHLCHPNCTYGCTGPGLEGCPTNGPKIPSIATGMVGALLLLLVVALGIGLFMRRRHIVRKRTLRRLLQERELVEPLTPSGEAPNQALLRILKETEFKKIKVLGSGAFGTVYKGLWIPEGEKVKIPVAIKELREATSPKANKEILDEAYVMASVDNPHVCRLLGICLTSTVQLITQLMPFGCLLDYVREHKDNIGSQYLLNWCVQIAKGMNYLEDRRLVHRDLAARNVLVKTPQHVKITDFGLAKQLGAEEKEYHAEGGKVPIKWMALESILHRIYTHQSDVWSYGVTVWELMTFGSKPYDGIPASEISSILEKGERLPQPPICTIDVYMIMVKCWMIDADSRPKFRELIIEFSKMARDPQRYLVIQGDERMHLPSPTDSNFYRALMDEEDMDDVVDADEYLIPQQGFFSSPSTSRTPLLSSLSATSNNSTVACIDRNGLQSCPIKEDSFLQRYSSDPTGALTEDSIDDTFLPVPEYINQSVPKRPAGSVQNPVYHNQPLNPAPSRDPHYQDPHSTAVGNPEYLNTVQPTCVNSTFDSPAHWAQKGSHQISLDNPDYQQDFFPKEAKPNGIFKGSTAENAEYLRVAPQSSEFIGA
Details: at 0.1 µM
Number only, in %; omit the unit.

GET /value?item= CCn1c(-c2nonc2N)nc2c(C#CC(C)(C)O)ncc(OC3CCNCC3)c21 &field=inhibition returns -0.91

GET /value?item= CCN1CCC(CC(=O)Nc2n[nH]c3nnc(-c4cccc(F)c4F)cc23)CC1 &field=inhibition returns 0.65

GET /value?item= FC(F)(F)c1cccc(-c2nn3ncccc3c2-c2ccnc(Nc3ccc4c(c3)OCCO4)n2)c1 &field=inhibition returns 8.83

GET /value?item= COc1cc2c(cc1Nc1nc(Nc3ccsc3C(N)=O)c3cc[nH]c3n1)N(C(=O)CN(C)C)CCC2(C)C &field=inhibition returns 1.86

GET /value?item= CN1CCC(n2cnc(-c3ccc(F)cc3)c2-c2ccnc(N)n2)CC1 &field=inhibition returns 1.43

* * *

Target: Tyrosine-protein kinase Lyn (Homo sapiens);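 also: mean inhibition of the LYN B splice variant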
Conditions: at 0.1 µM
Description: GSK_PKIS: LYN B (splice variant) mean inhibition at 0.1 uM [Nanosyn]
For each of the molecules below, state its inhibition.
Number only, in %; omit the unit.

GET /value?item= CCn1c(-c2nonc2N)nc2ccccc21 &field=inhibition returns 2.02

GET /value?item= COc1ccc(-c2cc(-c3c[nH]nc3-c3ccccn3)ccn2)cc1 &field=inhibition returns 3.87

GET /value?item= COc1ccc2c(-c3ccnc(Nc4cccc(OC(F)(F)F)c4)n3)cnn2n1 &field=inhibition returns 3.18

GET /value?item= CC(=O)NCc1cccc(C#Cc2cncnc2Nc2ccc(OCc3cccc(F)c3)c(Cl)c2)c1 &field=inhibition returns -0.59

GET /value?item= COC(=O)Nc1nc2ccc(Oc3ccc(NC(=O)Nc4cccc(Cl)c4)cc3)cc2[nH]1 &field=inhibition returns 4.25

GET /value?item= Clc1ccc(-c2nn3ncccc3c2-c2ccnc(Nc3ccccc3)n2)cc1 &field=inhibition returns 4.2

GET /value?item= O=S(=O)(CCNCc1ccc(-c2ccc3ncnc(Nc4ccc(OCc5cccc(F)c5)c(Cl)c4)c3c2)o1)c1ccccc1 &field=inhibition returns 3.9

GET /value?item= CCNC(=O)O[C@H]1CN[C@H](C#Cc2cc3ncnc(Nc4ccc(OCc5cccc(F)c5)c(Cl)c4)c3s2)C1 &field=inhibition returns 2.23

GET /value?item= Cc1ccc2c(-c3ccnc(Nc4ccccc4)n3)c(-c3ccc(F)cc3)nn2n1 &field=inhibition returns 8.55

GET /value?item= Nc1nc(-c2ccc(F)cc2)c(-c2ccc3ncccc3n2)s1 &field=inhibition returns 7.37

GET /value?item= CCN(CC)S(=O)(=O)c1ccc(OC)c(Nc2ncc(-c3ccccc3)o2)c1 &field=inhibition returns 4.28

GET /value?item= COc1cc(N2CCN(C(C)C)CC2)ccc1Nc1nc(Nc2ccc(F)cc2C(N)=O)c2cc[nH]c2n1 &field=inhibition returns 1.54

GET /value?item= Fc1cccc(COc2ccc(Nc3ncnc4sc(-c5ccco5)cc34)cc2Cl)c1 &field=inhibition returns 2.97

GET /value?item= CCOc1ccc2c(-c3ccnc(Nc4cccc(C(F)(F)F)c4)n3)cnn2n1 &field=inhibition returns 3.97

GET /value?item= Nc1ncc(-c2cccc(S(N)(=O)=O)c2)c2scc(-c3ccc(F)c(Cl)c3)c12 &field=inhibition returns 10.5

GET /value?item= CCn1c(-c2nonc2N)nc2c(C#CC(C)(C)O)ncc(OC3CCNCC3)c21 &field=inhibition returns 2.01

GET /value?item= N#Cc1c(NC(=O)CN2CCOCC2)sc2c1CCCC2 &field=inhibition returns 2.92

GET /value?item= CS(=O)(=O)CCNCc1coc(-c2ccc3ncnc(Nc4ccc(OCc5ccccc5)cc4)c3c2)c1 &field=inhibition returns 3.96

GET /value?item= COc1ccc(-c2cc3c(N)ncnc3o2)cc1 &field=inhibition returns 1.13

GET /value?item= COc1cccc(-c2c[nH]c3c(N/N=C/c4ccncc4)ncnc23)c1 &field=inhibition returns 33.8

GET /value?item= c1cc(-c2cnn3nc(N4CCOCC4)ccc23)nc(NC2CC2)n1 &field=inhibition returns 2.01

* * *

Molecular target: Protein-tyrosine kinase 2-beta (Homo sapiens) (UniProt Q14289);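 also: values are the mean percent inhibition of PYK2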
Sequence (Q14289 whole entry, looked up): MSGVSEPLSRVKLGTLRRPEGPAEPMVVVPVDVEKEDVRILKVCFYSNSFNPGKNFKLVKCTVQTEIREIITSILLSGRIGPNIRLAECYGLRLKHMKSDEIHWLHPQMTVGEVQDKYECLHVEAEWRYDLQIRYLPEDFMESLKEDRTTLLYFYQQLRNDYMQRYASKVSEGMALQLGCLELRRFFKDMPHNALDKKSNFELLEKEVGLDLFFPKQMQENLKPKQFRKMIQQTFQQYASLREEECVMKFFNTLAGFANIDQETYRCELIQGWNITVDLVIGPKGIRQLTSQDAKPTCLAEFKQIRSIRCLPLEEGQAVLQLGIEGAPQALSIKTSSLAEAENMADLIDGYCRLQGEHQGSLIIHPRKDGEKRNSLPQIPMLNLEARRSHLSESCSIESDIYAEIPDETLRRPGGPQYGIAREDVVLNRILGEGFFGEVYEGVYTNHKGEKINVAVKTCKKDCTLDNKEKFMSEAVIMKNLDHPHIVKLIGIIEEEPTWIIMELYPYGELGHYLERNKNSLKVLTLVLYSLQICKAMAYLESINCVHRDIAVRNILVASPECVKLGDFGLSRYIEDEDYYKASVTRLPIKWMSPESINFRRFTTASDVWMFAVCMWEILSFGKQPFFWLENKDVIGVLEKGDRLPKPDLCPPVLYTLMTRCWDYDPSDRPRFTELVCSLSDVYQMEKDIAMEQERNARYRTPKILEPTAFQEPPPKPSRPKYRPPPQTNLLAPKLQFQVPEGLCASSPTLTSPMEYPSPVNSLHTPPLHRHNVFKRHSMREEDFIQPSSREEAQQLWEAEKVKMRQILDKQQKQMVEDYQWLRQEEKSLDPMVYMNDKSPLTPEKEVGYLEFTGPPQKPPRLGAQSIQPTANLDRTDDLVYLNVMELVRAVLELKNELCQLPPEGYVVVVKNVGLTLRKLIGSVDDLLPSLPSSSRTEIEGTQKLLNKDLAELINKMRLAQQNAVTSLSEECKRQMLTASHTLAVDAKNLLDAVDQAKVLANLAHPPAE
Settings: at 1 µM
# if value of inhibition reaches 5%, tag 1.0; if it stays below, tag 0.0

Quick check, inhibition >= 5%? N#Cc1c(NC(=O)CN2CCOCC2)sc2c1CCCC2
1.0

Quick check, inhibition >= 5%? c1ccc(-c2nc3n(c2-c2ccc4c(c2)OCO4)CCC3)nc1
1.0

Quick check, inhibition >= 5%? CCc1nn2ncccc2c1-c1ccnc(NC2CC2)n1
0.0

Quick check, inhibition >= 5%? COC(=O)c1sc(-n2cnc3cc(OC)c(OC)cc32)cc1OCc1ccccc1C(F)(F)F
1.0

Quick check, inhibition >= 5%? CS(=O)(=O)CCNCc1coc(-c2ccc3ncnc(Nc4ccc(OCc5ccccc5)cc4)c3c2)c1
0.0

Quick check, inhibition >= 5%? CNC(=O)c1cccc(C#Cc2cncnc2Nc2ccc(OCc3cccc(F)c3)c(Cl)c2)c1
1.0

* * *

Target: Tyrosine-protein kinase receptor TYRO3 (Homo sapiens);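 also: reported percentages are averaged inhibition values of TYRO3 kinase activity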
Details: at 0.1 µM
For each of the compounds below, state its inhibition.
Number only, in %; omit the unit.

// inhibition (Tyrosine-protein kinase receptor TYRO3 (Homo sapiens)) for CS(=O)(=O)CCNCc1coc(-c2ccc3ncnc(Nc4ccc(OCc5ccccc5)cc4)c3c2)c1 = 2.35

// inhibition (Tyrosine-protein kinase receptor TYRO3 (Homo sapiens)) for COc1ccc2[nH]c3c4[nH]c5ccc(OC)cc5c4c4c(c3c2c1)C(=O)NC4=O = 17.1

// inhibition (Tyrosine-protein kinase receptor TYRO3 (Homo sapiens)) for COc1cc(N2CCN(C(C)C)CC2)ccc1Nc1nc(Nc2ccc(F)cc2C(N)=O)c2cc[nH]c2n1 = 0.64

// inhibition (Tyrosine-protein kinase receptor TYRO3 (Homo sapiens)) for CC(=O)NCc1cccc(C#Cc2cncnc2Nc2ccc(OCc3cccc(F)c3)c(Cl)c2)c1 = 1.2

// inhibition (Tyrosine-protein kinase receptor TYRO3 (Homo sapiens)) for CCCN1CCC(c2ccc(Nc3nc(Nc4cc(F)ccc4C(N)=O)c4cc[nH]c4n3)c(OC)c2)CC1 = 3.47
